Each entry below carries its recorded solubility.
test: Solubility; format: physicochemical; settings: phosphate buffer, pH 7.4, aqueous buffer, pH 7.4 phosphate buffer; read-out: Solubility

| COMPOUND | OBSERVED_MEASUREMENT |
| --- | --- |
| Nc1cccc(-c2ccc(CNc3ccc(F)cc3)o2)c1 [ORM‐11372] | 10 to 100 µg/mL |

Assign solubility to the following record: O=[N+]([O-])c1ccccc1-c1ccc(CNc2ccc(F)c(Cl)c2)o1 [ORM‐120407] < 10 µg/mL

----------
biological target: noradrenaline transporter (Rattus norvegicus); construct: [^3H]noradrenaline incorporated into rat hypothalamus synaptosomes; assay: [^3H]noradrenaline uptake into rat hypothalamus synaptosomes
Sequence (Q9WTR4 1-597): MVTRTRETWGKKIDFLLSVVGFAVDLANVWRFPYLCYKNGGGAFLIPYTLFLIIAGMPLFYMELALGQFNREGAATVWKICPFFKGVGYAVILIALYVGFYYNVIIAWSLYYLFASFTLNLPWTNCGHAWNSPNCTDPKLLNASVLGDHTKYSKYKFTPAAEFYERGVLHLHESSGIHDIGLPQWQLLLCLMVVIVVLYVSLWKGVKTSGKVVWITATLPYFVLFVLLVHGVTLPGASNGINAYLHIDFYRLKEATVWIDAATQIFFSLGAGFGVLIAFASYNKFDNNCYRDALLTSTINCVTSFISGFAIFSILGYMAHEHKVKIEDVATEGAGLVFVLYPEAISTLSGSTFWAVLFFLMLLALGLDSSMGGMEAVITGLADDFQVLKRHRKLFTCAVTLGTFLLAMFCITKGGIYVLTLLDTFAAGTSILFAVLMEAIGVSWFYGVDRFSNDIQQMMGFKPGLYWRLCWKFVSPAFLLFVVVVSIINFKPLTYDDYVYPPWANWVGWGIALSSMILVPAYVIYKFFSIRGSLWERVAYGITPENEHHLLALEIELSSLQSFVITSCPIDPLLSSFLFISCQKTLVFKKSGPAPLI
OBSERVED_PROPERTY: IC50 (nM)
The reply should contain only the number, in nM.

Assign IC50 to the following record: Nc1cccc(-c2ccc(CNc3ccc(F)cc3)o2)c1 1700

----------
molecular target: hERG (Homo sapiens, UniProt Q12809); test: hERG IC50 of Table 1 / Table S2 (method not assigned); type: cell-based; details: n=4 assays
Sequence (Q12809 whole entry): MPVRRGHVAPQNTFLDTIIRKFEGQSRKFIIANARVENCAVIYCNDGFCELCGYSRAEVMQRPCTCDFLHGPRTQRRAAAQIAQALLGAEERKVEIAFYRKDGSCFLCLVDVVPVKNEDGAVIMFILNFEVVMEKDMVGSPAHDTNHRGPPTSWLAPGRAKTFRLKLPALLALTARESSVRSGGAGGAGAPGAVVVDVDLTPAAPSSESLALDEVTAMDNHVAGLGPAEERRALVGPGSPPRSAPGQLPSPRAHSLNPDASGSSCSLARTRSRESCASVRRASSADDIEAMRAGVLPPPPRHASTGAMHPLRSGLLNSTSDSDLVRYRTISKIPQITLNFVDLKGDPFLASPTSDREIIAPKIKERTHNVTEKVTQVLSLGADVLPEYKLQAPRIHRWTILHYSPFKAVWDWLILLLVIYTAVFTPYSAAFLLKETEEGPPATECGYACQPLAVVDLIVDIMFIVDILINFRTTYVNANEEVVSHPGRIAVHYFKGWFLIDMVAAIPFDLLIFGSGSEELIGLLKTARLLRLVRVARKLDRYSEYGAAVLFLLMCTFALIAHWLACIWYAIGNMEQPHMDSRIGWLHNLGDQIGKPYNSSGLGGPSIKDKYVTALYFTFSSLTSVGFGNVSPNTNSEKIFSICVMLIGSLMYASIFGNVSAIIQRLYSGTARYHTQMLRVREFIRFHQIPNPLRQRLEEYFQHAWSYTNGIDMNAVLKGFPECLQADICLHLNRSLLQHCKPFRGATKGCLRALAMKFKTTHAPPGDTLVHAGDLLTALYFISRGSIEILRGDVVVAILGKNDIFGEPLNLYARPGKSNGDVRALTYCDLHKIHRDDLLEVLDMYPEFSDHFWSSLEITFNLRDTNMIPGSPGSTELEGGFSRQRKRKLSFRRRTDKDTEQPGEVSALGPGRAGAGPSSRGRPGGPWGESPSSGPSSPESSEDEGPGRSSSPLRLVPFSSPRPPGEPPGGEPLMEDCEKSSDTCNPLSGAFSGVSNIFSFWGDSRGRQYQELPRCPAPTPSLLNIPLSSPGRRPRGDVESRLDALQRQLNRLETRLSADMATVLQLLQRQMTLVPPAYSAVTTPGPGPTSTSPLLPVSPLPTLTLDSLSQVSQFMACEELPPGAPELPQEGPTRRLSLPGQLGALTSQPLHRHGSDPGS
OBSERVED_PROPERTY: pIC50
Note on pIC50: it is the negative log10 of concentration, concentration in mol/L.

| MOLECULE | OBSERVED_MEASUREMENT |
| --- | --- |
| Fc1ccc(NCc2ccc(-c3ccccn3)o2)cc1F | 5.62 |
| CCOc1ccc(Oc2ccc(OCc3cc(F)ccc3F)cc2)c(N)c1 [SEA0400, reference compound] | 5.55 |
| Fc1ccc(NCc2ccc(-c3cccc(Cl)c3)o2)cc1Cl | 4.84 |
| O=C(CN1CCC(O)CC1)Nc1ccc(Oc2ccc3c(c2)CCC(c2ccccc2)O3)nc1 (centres unmarked) | 5.47 |
| Fc1ccc(NCc2ccc(-c3ccccc3Cl)o2)cc1Cl | 5.05 |

Quote hERG (Homo sapiens, UniProt Q12809) pIC50 for entry Nc1cccc(-c2ccc(CNc3ccc(F)cc3)o2)c1 . 4.97

Quote hERG (Homo sapiens, UniProt Q12809) pIC50 for entry O=[N+]([O-])c1ccccc1-c1ccc(CNc2ccc(F)c(Cl)c2)o1 . 5.68

----------
biological target: hERG KV11.1 current (I hERG) (Homo sapiens, UniProt Q12809); assay: KV11.1 channel current (I hERG), QPatch automated patch‐clamp, CHO–hERG cells; assay type: cell-based; conditions: automated patch‐clamp, room temperature
Sequence (Q12809 whole entry): as the sequence (Q12809 whole entry) above
OBSERVED_PROPERTY: IC50
Write your answer as a measured quantity: the number, then the unit.

Quote hERG KV11.1 current (I hERG) (Homo sapiens, UniProt Q12809) IC50 for entry Nc1cccc(-c2ccc(CNc3ccc(F)cc3)o2)c1 . 19.2 µM

----------
assay: Solubility; assay type: physicochemical; details: phosphate buffer, pH 7.4, aqueous buffer, pH 7.4 phosphate buffer; read-out: Solubility class
Each entry below carries its recorded solubility.

| MOLECULE | OBSERVED_PROPERTY | OBSERVED_MEASUREMENT |
| --- | --- | --- |
| O=[N+]([O-])c1ccccc1-c1ccc(CNc2ccc(F)c(Cl)c2)o1 [ORM‐120407] | solubility | < 10 µg/mL |
| Fc1ccc(NCc2csc(-c3ccccc3Cl)n2)cc1F [ORM‐11863] | solubility | < 10 µg/mL |

Assign solubility to the following record: Fc1ccc(NCc2ccc(-c3cccc(Cl)c3)o2)cc1Cl [ORM‐11217] 10 to 100 µg/mL

Assign solubility to the following record: Nc1cccc(-c2ccc(CNc3ccc(F)cc3)o2)c1 [ORM‐11372] 10 to 100 µg/mL

Assign solubility to the following record: CCOC(=O)C1CSC(Cc2ccc(OCc3ccc([N+](=O)[O-])cc3)cc2)N1 (stereo not drawn) [SN‐6] 10 to 100 µg/mL

Assign solubility to the following record: Fc1ccc(NCc2ccc(-c3ccccc3Cl)o2)cc1Cl [ORM‐11165] < 10 µg/mL

Assign solubility to the following record: Fc1ccc(NCc2ccc(-c3cccnc3)o2)cc1F [ORM‐11875] 10 to 100 µg/mL

Assign solubility to the following record: Fc1ccc(NCc2ccc(-c3ccccn3)o2)cc1F [ORM‐11817] < 10 µg/mL

Assign solubility to the following record: Fc1ccc(NCc2coc(-c3ccccc3)n2)cc1Cl [ORM‐11298] 10 to 100 µg/mL

----------
molecular target: rat NCX 1.1 current (I NCX) (Rattus norvegicus); construct: In rat primary ventricular CMs, the magnitude of outward I NCX; endogenous in cells; host or cells: freshly isolated left ventricular cardiomyocytes of male Wistar rats; assay: NCX current (I NCX), whole‐cell patch‐clamp in rat ventricular cardiomyocytes; assay type: cell-based; details: rat CMs, summarised (discussion); read-out: IC50 rat NCX 1.1 currents
OBSERVED_PROPERTY: IC50 (nM)
The reply should contain only the number, in nM.

Assign IC50 to the following record: Nc1cccc(-c2ccc(CNc3ccc(F)cc3)o2)c1 10

----------
experiment: Solubility; assay type: physicochemical; conditions: saline, saline or isotonic, saline used for in vivo dosing; read-out: Solubility in saline
OBSERVED_PROPERTY: solubility

Assign solubility to the following record: Nc1cccc(-c2ccc(CNc3ccc(F)cc3)o2)c1 5300 µg/mL

----------
biological target: human NCX 1.1 (Homo sapiens); test: Fluorescence screening assay for hNCX 1.1 inhibition (reverse mode, Sf9 cells); conditions: Sf9 cells expressing human NCX1.1, reverse mode, fluorescence; n=3 assays
OBSERVED_PROPERTY: pIC50
Note on pIC50: it is the negative log10 of concentration, concentration in mol/L.

| MOLECULE | TARGET_UNDER_TEST | pIC50 |
| --- | --- | --- |
| O=[N+]([O-])c1ccccc1-c1ccc(CNc2ccccc2)o1 | human NCX 1.1 (Homo sapiens) | 6.06 |
| Fc1ccc(NCc2ccc(-c3ccc(Cl)cc3)o2)cc1Cl | human NCX 1.1 (Homo sapiens) | 6.69 |

Assign pIC50 to the following record: Fc1ccc(NCc2ccc(-c3ccccn3)o2)cc1F 8.52

Assign pIC50 to the following record: Fc1ccc(NCc2csc(-c3ccccc3Cl)n2)cc1F 8.60

Assign pIC50 to the following record: O=[N+]([O-])c1cccc(-c2ccc(CNc3ccc(F)c(Cl)c3)o2)c1 6.81

Assign pIC50 to the following record: O=[N+]([O-])c1ccc(Oc2ccc3c(c2)CCC(c2ccccc2)O3)nc1 (stereo not drawn) 6.75

Assign pIC50 to the following record: Fc1ccc(NCc2ccc(-c3ccccc3Cl)o2)cc1Cl 8.40

Assign pIC50 to the following record: Fc1ccc(NCc2coc(-c3ccccc3)n2)cc1Cl 7.51

Assign pIC50 to the following record: Fc1ccc(NCc2ccc(-c3cccnc3)o2)cc1F 7.05

Assign pIC50 to the following record: O=C(CN1CCC(O)CC1)Nc1ccc(Oc2ccc3c(c2)CCC(c2ccccc2)O3)nc1 (stereo not drawn) 6.71

Assign pIC50 to the following record: O=[N+]([O-])c1ccccc1-c1ccc(CNc2ccc(F)c(Cl)c2)o1 6.64

Assign pIC50 to the following record: N=C(N)SCCc1ccc(OCc2ccc([N+](=O)[O-])cc2)cc1 5.42

Assign pIC50 to the following record: Fc1ccc(NCc2ccc(-c3cccc(Cl)c3)o2)cc1Cl 6.68

Assign pIC50 to the following record: CCOC(=O)C1CSC(Cc2ccc(OCc3ccc([N+](=O)[O-])cc3)cc2)N1 (stereo not drawn) 4.80

Assign pIC50 to the following record: CCOc1ccc(Oc2ccc(OCc3cc(F)ccc3F)cc2)c(N)c1 [SEA0400, reference compound] 6.42

----------
biological target: MAO A (Homo sapiens); test: MAO A inhibition (Table S2); assay type: biochemical
Sequence (P21397 whole entry, species assumed): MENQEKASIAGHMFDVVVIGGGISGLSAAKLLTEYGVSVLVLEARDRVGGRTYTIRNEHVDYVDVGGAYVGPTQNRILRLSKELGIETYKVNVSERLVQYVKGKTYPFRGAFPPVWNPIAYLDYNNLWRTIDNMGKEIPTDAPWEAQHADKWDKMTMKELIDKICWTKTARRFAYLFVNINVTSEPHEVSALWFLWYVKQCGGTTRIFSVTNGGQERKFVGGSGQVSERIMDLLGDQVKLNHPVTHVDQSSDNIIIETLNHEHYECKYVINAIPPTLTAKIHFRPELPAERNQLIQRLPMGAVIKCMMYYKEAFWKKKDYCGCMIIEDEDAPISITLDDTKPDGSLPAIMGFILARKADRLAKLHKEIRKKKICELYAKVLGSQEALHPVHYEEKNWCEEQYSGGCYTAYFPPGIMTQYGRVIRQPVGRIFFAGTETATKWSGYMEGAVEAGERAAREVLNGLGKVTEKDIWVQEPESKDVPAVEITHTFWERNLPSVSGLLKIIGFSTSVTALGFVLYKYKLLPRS
OBSERVED_PROPERTY: pIC50
Note on pIC50: it is the negative log10 of concentration, concentration in mol/L.

Assign pIC50 to the following record: CCOc1ccc(Oc2ccc(OCc3cc(F)ccc3F)cc2)c(N)c1 [SEA0400, reference compound] 5.36

----------
Target: hNCX1 (Homo sapiens)
Test: Confirmatory fluorescence assay for hNCX1 inhibition (forward mode, HEK293 cells, Charles River)
Assay type: cell-based
Conditions: HEK293, forward mode, 0.3% DMSO; read-out: IC50 hNCX1 calcium efflux signal
Procedure: A confirmatory hNCX1 inhibition assay was performed in Charles River Laboratories, Cleveland. […] A plate was inserted into a FLIPR^TETRA, and a baseline was recorded during a preincubation period where test compound or vehicle in a Na^+‐free HB‐PS containing thapsigargin (6 μM) and […] (30 μM) was added to each well for ~5 min. Next, the NCX1 stimulation period was recorded in which Na^+‐containing HB‐PS (with 2‐μM thapsigargin and 10‐μM FCCP) was added. […]
OBSERVED_PROPERTY: pIC50
Note on pIC50: it is the negative log10 of concentration, concentration in mol/L.

Assign pIC50 to the following record: Nc1cccc(-c2ccc(CNc3ccc(F)cc3)o2)c1 6.85
